test system: REH cells; assay: 72-hour resazurin-based cytotoxicity assay, REH; design: species or system human; conditions: KMT2A-wt, pre-B cell ALL
assay-endpoint: IC50

Note to self: IC50 recorded for CCOC(=O)C(C)Oc1cccc2c(=O)n(CC(=O)Nc3ccc4c(c3)OCCO4)ccc12 (stereo not shown) [SID7969543] was > 20 µM

---

tested on: LNCaP cells; experiment: 72-hour resazurin-based cytotoxicity assay, LNCaP; format: cell-based, human; details: Homo sapiens, prostate carcinoma
assay-endpoint: pIC50
Answer as the number alone; pIC50 is minus log10 of concentration in mol/L.

# compound Nc1nc(Cl)nc2c1ncn2[C@@H]1O[C@H](COP(=O)(O)OP(=O)(O)OP(=O)(O)O)[C@@H](O)[C@H]1O [2-Cl-ATP, 2-chloroadenosine triphosphate] ; its pIC50 = 4.83
